# tested on: T1, recombinant human VEGF165 (PeproTech EC Ltd.) (human, UniProt P15692-4 27-191)
# T1 construct: Amine-coupled to a CM4 sensor chip; also called hVEGF165
# T1 sequence (P15692 other isoform, or with tags, fused parts or gaps limits assumed): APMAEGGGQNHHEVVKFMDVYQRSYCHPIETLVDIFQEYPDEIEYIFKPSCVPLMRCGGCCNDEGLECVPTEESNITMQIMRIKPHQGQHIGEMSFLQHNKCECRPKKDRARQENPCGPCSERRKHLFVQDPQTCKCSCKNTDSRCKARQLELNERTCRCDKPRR
# assay details: SPR BIAcore T100, hVEGF165 amine-coupled on CM4 chip, scFv as analyte
quantity name: kon (M⁻¹ s⁻¹)
Report only the number, with the unit M⁻¹ s⁻¹ understood.

Q: Specify measured kon for 534-max (scFv) EIVMTQSPSTLSASVGDRVIITCQASQSINIWLSWYQQKPGKAPKLLIYKESTLASGVPSRFSGSGSGTEFTLTISSLQPDDFATYYCQNNYDSGNNGFPFGQGTKLTVLGGGGGSGGGGSGGGGSGGGGSEVQLVESGGGLVQPGGSLRLSCTASGFSLSYYYMSWVRQAPGKGLEWVGIIGPGDYTDYASWAKGRFTISKDTSKNTVYLQMNSLRAEDTAVYYCARGDDNSGWGEDIWGQGTLVTVSS .
Result: 1.88e+06

Q: Specify measured kon for 435-max (scFv) EIVMTQSPSTLSASVGDRVIITCQASQSIGSSLAWYQQKPGKAPKLLIYTAANLASGVPSRFSGSRSGAEFTLTISSLQPDDFATYYCQNFATSDTVTFGQGTKLTVLGGGGGSGGGGSGGGGSGGGGSEVQLVESGGGLVQPGGSLRLSCKASGFSLNTNYWMCWVRQAPGKGLEWVGCMYTGSYNRAYYASWAKGRFTSSKDTSKNTVYLQMNSLRAEDTAVYYCAKGSNWYSDLWGQGTLVTVSS .
Result: 167000

// next entry
Q: Specify measured kon for 509-min (scFv) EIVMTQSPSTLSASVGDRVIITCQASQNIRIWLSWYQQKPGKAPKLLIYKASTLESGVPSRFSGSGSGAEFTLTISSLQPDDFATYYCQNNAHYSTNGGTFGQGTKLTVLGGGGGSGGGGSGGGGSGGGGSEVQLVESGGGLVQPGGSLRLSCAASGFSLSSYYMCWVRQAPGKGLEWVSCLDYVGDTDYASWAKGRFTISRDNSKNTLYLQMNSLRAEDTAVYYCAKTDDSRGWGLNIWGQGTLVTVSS .
Result: 623000
